Assay: Pharmacokinetic study in male ICR mice
Assay type: in vivo
Details: male, ICR, plasma; mouse, IV 2 mg/kg; read-out: Vss
Quantity Measured: Vd (L/kg)

>>> measured_value("O=C1CC[C@H](N2Cc3cc(N4CCN(CC5CCN(c6ccc([C@@H]7c8ccc(O)cc8CC[C@@H]7c7ccccc7)cc6)CC5)CC4)ccc3C2=O)C(=O)N1")
1.43

* * *

Experiment: Pharmacokinetic study in male ICR mice
Assay type: in vivo
Conditions: male, ICR, plasma; mouse, PO 5 mg/kg vs IV 2 mg/kg; read-out: BA (oral bioavailability)
Quantity Measured: bioavailability (%)

>>> measured_value("O=C1CC[C@H](N2Cc3cc(N4CCN(CC5CCN(c6ccc([C@@H]7c8ccc(O)cc8CC[C@@H]7c7ccccc7)cc6)CC5)CC4)ccc3C2=O)C(=O)N1 [vepdegestrant, Vepdegestrant]")
17.9
